test system: LOX IMVI melanoma; experiment: NCI tumour cell line growth inhibition, 48 h
Value type: log10 of TGI (log10 of the value in µM)

> print(dat)
                                   compound  recorded.measurement
1  CC(C)CCCC(C)[C@H]1CC[C@H]2N=C(Nc3ccccc3)CCC[C@]12C (stereo not given in full)                  0.61
2  COc1cc2cc(C(=O)N3CC(CCl)c4c3cc([N+](C)(C)Cc3ccc([N+](=O)[O-])n3C)c3ccccc43)[nH]c2c(OC)c1OC (stereo not given)                  1.09
3  COc1ccc2c(c1)nc1n2C(c2ccc(F)cc2)SC1 (stereo not given)                  1.79
4            CC/C(Cl)=N\OC(=O)Nc1ccc(F)cc1F                  0.82
5  CC(=O)[CH-]C(=O)c1ccccc1.CC(=O)[CH-]C(=O)c1ccccc1.[CH2-]CCC.[CH2-]CCC.[Sn+4]                  0.39
6  CC[C@@]1(O)C(=O)OCc2c1cc1n(c2=O)Cc2cc3c(N)cccc3nc2-1                 -0.59
7             NC(=O)C(=O)n1ncc(Cl)c(Cl)c1=O                  1.75
8  CN(C)CCCC1(c2ccc(F)cc2)OCc2cc(-c3cncc4ccccc34)ccc21 (stereo not given)                  0.51
9           COc1ccc(/C=C/C(=O)C(C)(C)Br)cc1                  1.37

###

tested on: OVCAR-4 ovarian; assay: NCI tumour cell line growth inhibition, 48 h
Value type: TGI (µM)

> print(dat)
                                   compound     study.system  bound.type  recorded.measurement
1  CC(C)CCCC(C)[C@H]1CC[C@H]2N=C(Nc3ccccc3)CCC[C@]12C (some centres undefined)  OVCAR-4 ovarian           =                  14.4
2  C1=C2CNCC3=Cc4ccc5ccccc5c4OC23Oc2c1ccc1ccccc21  OVCAR-4 ovarian           =                  19.8
3  COc1cc2cc(Oc3ccc(NC(=O)c4cccc5c4OCCO5)cc3)c(C)nc2cc1OC  OVCAR-4 ovarian           =                    35
4  C=C1CC(Cn2cc(Br)c(=O)[nH]c2=O)(c2ccc(-c3ccccc3)cc2)OC1=O (centres undefined)  OVCAR-4 ovarian           =                  4.64
5  O=C(O)C1C(C(=O)O)C2(Cl)C(Cl)=C(Cl)C1(Cl)C2(Cl)Cl.[Cd] (centres undefined)  OVCAR-4 ovarian           =                  37.5
6  Cc1cc(=O)[nH]c(NNC(C#N)c2ccc([N+](=O)[O-])cc2)n1 (centres undefined)  OVCAR-4 ovarian           >                   100
7  Fc1c[c-]c(-c2ccccn2)c(F)c1.[CH3-].[Pt+2].c1ccc(P(C[PH+](c2ccccc2)c2ccccc2)c2ccccc2)cc1  OVCAR-4 ovarian           =                  3.71
8  COc1ccc(/C=C2\CCC(CNc3ccc(Br)cc3)C2=O)cc1 (centres undefined)  OVCAR-4 ovarian           >                   100
9  COc1cc(-n2cc(-c3cc(O)c(C/C=C(\C)CCC=C(C)C)c(O)c3)nn2)cc2c1O[C@]1(C)CC[C@@H](O)C(C)(C)[C@H]1C2  OVCAR-4 ovarian           =                  41.6
